Source of measurements: patent US8211861B2

Test system: CD8+ T cells responsive to OVA
method notes: SIINFEKL pentamer assay, percentage of OVA-specific CD8+ T cells
Assay type: in vivo, mouse
measurement conditions: Example 6 Experiment A, FIG. 9; IM, 50 μg Ova with 1 μg adjuvant, days 0 and 14, blood day 21
measured property: percentage of OVA specific CD8+ T cells (SIINFEKL pentamer)

• CCCCCCCCCCCCCCCCCCCCCCCCCC(=O)N[C@@H](CO[C@H]1O[C@H](CNC(=O)CCCC[C@@H]2SC[C@@H]3NC(=O)N[C@@H]32)[C@H](O)[C@H](O)[C@H]1O)[C@H](O)[C@H](O)CCCCCCCCCCCCCC [PBS-11, reference compound] = not as effective
• CCCCCCCCCCCCCCCCCCCCCCCCCC(=O)N[C@@H](CO[C@H]1O[C@H](CO)[C@H](O)[C@H](O)[C@H]1O)[C@H](O)[C@H](O)CCCCCCCCCCCCCC [αGalCer, α-galactosyceramide, reference compound] = not as effective
